- target desc: PIK3C2B (human) (UniProt O00750)
- Sequence (O00750 whole entry, looked up): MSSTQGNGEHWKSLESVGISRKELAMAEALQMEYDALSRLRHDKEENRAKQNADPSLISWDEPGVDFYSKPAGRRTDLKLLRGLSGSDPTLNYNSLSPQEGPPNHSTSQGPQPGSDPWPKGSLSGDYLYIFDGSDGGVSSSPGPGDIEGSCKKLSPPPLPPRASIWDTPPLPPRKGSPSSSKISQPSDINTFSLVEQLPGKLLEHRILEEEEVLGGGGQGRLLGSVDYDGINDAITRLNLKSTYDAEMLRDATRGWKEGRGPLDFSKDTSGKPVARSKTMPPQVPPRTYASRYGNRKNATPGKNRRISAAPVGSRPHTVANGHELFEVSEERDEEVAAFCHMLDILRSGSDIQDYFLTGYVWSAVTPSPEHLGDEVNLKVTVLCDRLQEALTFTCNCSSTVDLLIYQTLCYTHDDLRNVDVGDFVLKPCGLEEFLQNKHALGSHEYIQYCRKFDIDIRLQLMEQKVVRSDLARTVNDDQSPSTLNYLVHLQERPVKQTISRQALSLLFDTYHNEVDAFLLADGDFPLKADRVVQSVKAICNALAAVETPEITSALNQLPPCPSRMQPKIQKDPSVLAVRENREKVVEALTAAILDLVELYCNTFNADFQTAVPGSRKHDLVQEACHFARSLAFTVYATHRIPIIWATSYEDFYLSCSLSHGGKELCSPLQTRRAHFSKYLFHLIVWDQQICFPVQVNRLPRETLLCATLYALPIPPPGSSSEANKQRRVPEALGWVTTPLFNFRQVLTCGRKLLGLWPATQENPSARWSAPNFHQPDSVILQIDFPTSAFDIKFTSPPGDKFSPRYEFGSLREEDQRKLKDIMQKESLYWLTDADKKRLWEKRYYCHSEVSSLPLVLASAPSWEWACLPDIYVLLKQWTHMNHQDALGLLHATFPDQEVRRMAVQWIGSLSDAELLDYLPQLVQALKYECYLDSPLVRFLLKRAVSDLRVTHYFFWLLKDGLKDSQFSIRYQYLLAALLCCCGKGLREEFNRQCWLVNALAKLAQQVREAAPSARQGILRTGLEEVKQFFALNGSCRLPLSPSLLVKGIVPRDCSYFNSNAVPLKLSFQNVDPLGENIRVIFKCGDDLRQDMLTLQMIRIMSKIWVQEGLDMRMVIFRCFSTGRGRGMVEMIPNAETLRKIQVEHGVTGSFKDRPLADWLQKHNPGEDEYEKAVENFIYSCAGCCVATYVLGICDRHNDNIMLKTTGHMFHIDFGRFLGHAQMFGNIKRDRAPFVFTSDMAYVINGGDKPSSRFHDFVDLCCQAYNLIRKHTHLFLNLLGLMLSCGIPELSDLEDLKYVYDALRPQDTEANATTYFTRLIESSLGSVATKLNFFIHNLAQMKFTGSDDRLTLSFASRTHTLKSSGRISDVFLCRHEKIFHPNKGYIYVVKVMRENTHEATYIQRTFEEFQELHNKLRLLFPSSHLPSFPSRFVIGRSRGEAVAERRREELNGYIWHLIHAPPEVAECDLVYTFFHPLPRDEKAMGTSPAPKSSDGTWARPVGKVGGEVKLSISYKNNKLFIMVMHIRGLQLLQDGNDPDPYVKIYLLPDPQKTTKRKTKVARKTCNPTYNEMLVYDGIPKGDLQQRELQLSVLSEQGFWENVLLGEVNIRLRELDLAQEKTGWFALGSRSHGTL
- method summary: KINOMEscan competition binding
- condition description: compound 10.0 µM
metric: kinase still bound, per cent of control (%)

# compound, recorded number
measured = [
    ("COc1cc(C)c(Sc2cnc(NC(=O)c3ccc(CNC(C)C(C)C)cc3)s2)cc1C(=O)N1CCN(C(C)=O)CC1 (centres undefined)", 100),
    ("CCN1CCN(Cc2ccc(NC(=O)c3ccc(C)c(/C=C/c4cnc5[nH]ccc5c4OC)c3)cc2C(F)(F)F)CC1", 100),
    ("CC(=O)c1c(C)c2cnc(Nc3ccc(N4CCNCC4)cn3)nc2n(C2CCCC2)c1=O", 98),
    ("N#C/C(=C1/Nc2ccccc2S1)c1ccnc(NCCc2cccnc2)n1", 19),
    ("C=CC(=O)Nc1ccc(C(=O)c2sc(Nc3ccc(N4CCN(C)CC4)cc3OC)nc2N)cc1", 100),
    ("CC1=C(C(=O)Nc2cc3cn[nH]c3cc2F)C(c2ccc(C(F)(F)F)cc2)CC(=O)N1 (centres undefined)", 100),
    ("CCN(CCO)CCCOc1ccc2c(Nc3cc(CC(=O)Nc4cccc(F)c4)[nH]n3)ncnc2c1", 58),
    ("CCc1nc(-c2cccc(C)c2)c(-c2ccnc(NC(=O)c3ccccc3)c2)s1", 100),
    ("CNC(=O)Nc1ccc(-c2nc(N3CC4CCC(C3)O4)c3cnn(C4CCC5(CC4)OCCO5)c3n2)cc1", 25),
]

---

- target desc: UniProtKB Q14004
- Sequence (Q14004 whole entry, looked up): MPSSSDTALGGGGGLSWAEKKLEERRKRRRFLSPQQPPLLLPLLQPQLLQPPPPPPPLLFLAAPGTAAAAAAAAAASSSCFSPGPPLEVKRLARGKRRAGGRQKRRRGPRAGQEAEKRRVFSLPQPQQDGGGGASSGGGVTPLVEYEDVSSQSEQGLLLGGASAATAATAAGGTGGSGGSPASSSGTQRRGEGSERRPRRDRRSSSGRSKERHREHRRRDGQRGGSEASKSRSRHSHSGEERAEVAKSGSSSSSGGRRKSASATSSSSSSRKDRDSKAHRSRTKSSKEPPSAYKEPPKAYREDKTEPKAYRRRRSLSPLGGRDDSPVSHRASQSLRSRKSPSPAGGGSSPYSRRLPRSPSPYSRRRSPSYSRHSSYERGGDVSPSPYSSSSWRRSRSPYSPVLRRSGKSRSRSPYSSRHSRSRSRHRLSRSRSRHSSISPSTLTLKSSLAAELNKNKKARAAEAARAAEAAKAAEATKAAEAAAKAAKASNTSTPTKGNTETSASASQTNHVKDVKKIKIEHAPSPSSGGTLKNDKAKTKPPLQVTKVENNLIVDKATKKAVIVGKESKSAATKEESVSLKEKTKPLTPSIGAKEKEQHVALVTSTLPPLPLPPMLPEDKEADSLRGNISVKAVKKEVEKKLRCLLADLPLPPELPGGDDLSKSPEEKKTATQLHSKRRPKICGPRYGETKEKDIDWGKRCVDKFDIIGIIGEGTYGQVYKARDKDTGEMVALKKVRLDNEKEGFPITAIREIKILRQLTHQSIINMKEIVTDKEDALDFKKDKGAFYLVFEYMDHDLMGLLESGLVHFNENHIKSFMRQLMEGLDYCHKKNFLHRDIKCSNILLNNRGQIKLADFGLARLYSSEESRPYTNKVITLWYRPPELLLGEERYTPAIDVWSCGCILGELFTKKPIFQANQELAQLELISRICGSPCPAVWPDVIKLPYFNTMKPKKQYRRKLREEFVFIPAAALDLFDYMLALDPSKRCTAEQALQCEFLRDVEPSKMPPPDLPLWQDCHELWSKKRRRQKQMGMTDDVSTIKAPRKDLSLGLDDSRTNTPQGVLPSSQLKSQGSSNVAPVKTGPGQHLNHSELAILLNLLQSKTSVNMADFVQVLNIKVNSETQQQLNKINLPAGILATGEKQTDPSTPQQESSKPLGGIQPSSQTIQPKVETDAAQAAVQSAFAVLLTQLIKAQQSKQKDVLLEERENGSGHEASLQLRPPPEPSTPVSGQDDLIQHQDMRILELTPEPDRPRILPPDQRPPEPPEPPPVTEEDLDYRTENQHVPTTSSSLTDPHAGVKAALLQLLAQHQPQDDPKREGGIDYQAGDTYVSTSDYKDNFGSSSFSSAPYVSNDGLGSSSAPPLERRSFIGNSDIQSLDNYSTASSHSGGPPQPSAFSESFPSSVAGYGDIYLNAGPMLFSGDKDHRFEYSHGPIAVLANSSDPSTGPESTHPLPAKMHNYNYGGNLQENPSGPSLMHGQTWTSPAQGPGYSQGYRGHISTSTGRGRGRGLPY
- method summary: KINOMEscan competition binding
- condition description: compound 10.0 µM
In this section we review reported kinase still bound, per cent of control values for a set of molecules.
metric: kinase still bound, per cent of control (%)

# molecule, target desc, recorded number
records = [
    ("CNC(=O)Nc1ccc(-c2nc(N3CC4CCC(C3)O4)c3cnn(C4CCC5(CC4)OCCO5)c3n2)cc1", "UniProtKB Q14004", 84),
    ("CC(=O)c1c(C)c2cnc(Nc3ccc(N4CCNCC4)cn3)nc2n(C2CCCC2)c1=O", "UniProtKB Q14004", 47),
    ("N#Cc1cc(-c2ccnc(Nc3ccc(-n4cnc(-c5cccnc5)n4)cc3)n2)cc(N2CCOCC2)c1", "UniProtKB Q14004", 100),
    ("CCc1nc(-c2cccc(C)c2)c(-c2ccnc(NC(=O)c3ccccc3)c2)s1", "UniProtKB Q14004", 100),
    ("CCCS(=O)(=O)Nc1ccc(F)c(C(=O)c2c[nH]c3ncc(Cl)cc23)c1F", "UniProtKB Q14004", 100),
    ("CCN(CCO)CCCOc1ccc2c(Nc3cc(CC(=O)Nc4cccc(F)c4)[nH]n3)ncnc2c1", "UniProtKB Q14004", 66),
    ("CC1=C(C(=O)Nc2cc3cn[nH]c3cc2F)C(c2ccc(C(F)(F)F)cc2)CC(=O)N1 (stereo not drawn)", "UniProtKB Q14004", 24),
    ("O=c1[nH]c2ccccc2n1C1CCN(Cc2ccc(-c3nc4cc5[nH]cnc5cc4nc3-c3ccccc3)cc2)CC1", "UniProtKB Q14004", 98),
]

---

- target desc: EIF2AK2 (human)
- method summary: KINOMEscan competition binding
- condition description: compound 10.0 µM
metric: kinase still bound, per cent of control

# smiles representation, metric, result
data = [
    ("N#C/C(=C1/Nc2ccccc2S1)c1ccnc(NCCc2cccnc2)n1", "kinase still bound, per cent of control", "72%"),
    ("CCN(CCO)CCCOc1ccc2c(Nc3cc(CC(=O)Nc4cccc(F)c4)[nH]n3)ncnc2c1", "kinase still bound, per cent of control", "100%"),
    ("COc1cc2c(Nc3ccc(NC(=O)c4ccccc4)cc3)ncnc2cc1OCCCN1CCOCC1", "kinase still bound, per cent of control", "100%"),
    ("COc1cc(N2CCC(C(N)=O)CC2)ccc1Nc1nc(N)c(Cl)c(Nc2ccccc2S(=O)(=O)C(C)C)n1", "kinase still bound, per cent of control", "100%"),
    ("O=c1[nH]c2ccccc2n1C1CCN(Cc2ccc(-c3nc4cc5[nH]cnc5cc4nc3-c3ccccc3)cc2)CC1", "kinase still bound, per cent of control", "100%"),
]

---

- target desc: MAP3K15 (human)
- method summary: KINOMEscan competition binding
- condition description: compound 10.0 µM
In this section we review reported kinase still bound, per cent of control values for a set of compounds.

# smiles representation, scale unit, kinase still bound, per cent of control
rows = [
    ("CCN(CCO)CCCOc1ccc2c(Nc3cc(CC(=O)Nc4cccc(F)c4)[nH]n3)ncnc2c1", "%", 100),
    ("Cc1cn(-c2cc(C(=O)Nc3ccc(C)c(NC(=O)c4ccno4)c3)cc(C(F)(F)F)c2)cn1", "%", 100),
    ("O=c1[nH]c2ccccc2n1C1CCN(Cc2ccc(-c3nc4cc5[nH]cnc5cc4nc3-c3ccccc3)cc2)CC1", "%", 100),
    ("COc1cc2ncnc(Nc3cccc(Cl)c3)c2cc1OC", "%", 34),
    ("N#Cc1cc(-c2ccnc(Nc3ccc(-n4cnc(-c5cccnc5)n4)cc3)n2)cc(N2CCOCC2)c1", "%", 66),
    ("C=CC(=O)Nc1ccc(C(=O)c2sc(Nc3ccc(N4CCN(C)CC4)cc3OC)nc2N)cc1", "%", 9.2),
]

---

- target desc: PAK1 (human) (UniProt Q13153)
- Sequence (Q13153 whole entry, looked up): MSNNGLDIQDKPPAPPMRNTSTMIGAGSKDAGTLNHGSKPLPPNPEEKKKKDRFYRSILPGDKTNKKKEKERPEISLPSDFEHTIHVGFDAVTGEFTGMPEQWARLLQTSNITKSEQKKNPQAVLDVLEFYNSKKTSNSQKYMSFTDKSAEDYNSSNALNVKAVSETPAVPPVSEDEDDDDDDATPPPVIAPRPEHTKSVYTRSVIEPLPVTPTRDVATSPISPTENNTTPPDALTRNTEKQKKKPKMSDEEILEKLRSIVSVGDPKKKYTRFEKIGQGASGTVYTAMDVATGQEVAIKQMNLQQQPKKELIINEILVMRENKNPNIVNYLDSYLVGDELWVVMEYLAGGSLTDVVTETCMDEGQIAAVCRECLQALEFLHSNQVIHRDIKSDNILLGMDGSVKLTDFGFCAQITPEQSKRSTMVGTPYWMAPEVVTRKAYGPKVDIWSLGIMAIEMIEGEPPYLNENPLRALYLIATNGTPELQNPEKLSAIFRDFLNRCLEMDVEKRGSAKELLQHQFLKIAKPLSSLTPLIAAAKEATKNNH
- method summary: KINOMEscan competition binding
- condition description: compound 10.0 µM
In this section we review reported kinase still bound, per cent of control values for a set of compounds.
metric: kinase still bound, per cent of control (%)

# compound, recorded number
data = [
    ("CCN1CCN(Cc2ccc(NC(=O)c3ccc(C)c(/C=C/c4cnc5[nH]ccc5c4OC)c3)cc2C(F)(F)F)CC1", 100),
    ("O=c1[nH]c2ccccc2n1C1CCN(Cc2ccc(-c3nc4cc5[nH]cnc5cc4nc3-c3ccccc3)cc2)CC1", 90),
    ("Cc1cn(-c2cc(C(=O)Nc3ccc(C)c(NC(=O)c4ccno4)c3)cc(C(F)(F)F)c2)cn1", 100),
    ("CCOc1cc(N2CCC(O)CC2)ccc1Nc1ncc2c(n1)N(C)c1ccccc1C(=O)N2C", 100),
    ("COc1ccc(N(C(=O)Oc2cc(C(=O)Nc3cccc(C(F)(F)F)c3)ccc2C)c2ccnc(Nc3ccc(N4CCN(C)CC4)cc3)n2)c(OC)c1", 100),
    ("CNC(=O)Nc1ccc(-c2nc(N3CC4CCC(C3)O4)c3cnn(C4CCC5(CC4)OCCO5)c3n2)cc1", 100),
    ("COc1cc2c(Nc3ccc(NC(=O)c4ccccc4)cc3)ncnc2cc1OCCCN1CCOCC1", 82),
    ("COc1cc(N2CCC(C(N)=O)CC2)ccc1Nc1nc(N)c(Cl)c(Nc2ccccc2S(=O)(=O)C(C)C)n1", 100),
    ("CCCS(=O)(=O)Nc1ccc(F)c(C(=O)c2c[nH]c3ncc(Cl)cc23)c1F", 11),
    ("COc1cc2ncnc(Nc3cccc(Cl)c3)c2cc1OC", 85),
    ("N#Cc1cc(-c2ccnc(Nc3ccc(-n4cnc(-c5cccnc5)n4)cc3)n2)cc(N2CCOCC2)c1", 65),
    ("CC1=C(C(=O)Nc2cc3cn[nH]c3cc2F)C(c2ccc(C(F)(F)F)cc2)CC(=O)N1 (configuration not stated)", 81),
    ("CCN(CCO)CCCOc1ccc2c(Nc3cc(CC(=O)Nc4cccc(F)c4)[nH]n3)ncnc2c1", 100),
    ("COc1cc(C)c(Sc2cnc(NC(=O)c3ccc(CNC(C)C(C)C)cc3)s2)cc1C(=O)N1CCN(C(C)=O)CC1 (configuration not stated)", 100),
    ("N#C/C(=C1/Nc2ccccc2S1)c1ccnc(NCCc2cccnc2)n1", 77),
    ("C=CC(=O)Nc1ccc(C(=O)c2sc(Nc3ccc(N4CCN(C)CC4)cc3OC)nc2N)cc1", 73),
    ("CCc1nc(-c2cccc(C)c2)c(-c2ccnc(NC(=O)c3ccccc3)c2)s1", 76),
]

---

- target desc: MAP4K4 (human) (UniProt O95819)
- Sequence (O95819 whole entry, looked up): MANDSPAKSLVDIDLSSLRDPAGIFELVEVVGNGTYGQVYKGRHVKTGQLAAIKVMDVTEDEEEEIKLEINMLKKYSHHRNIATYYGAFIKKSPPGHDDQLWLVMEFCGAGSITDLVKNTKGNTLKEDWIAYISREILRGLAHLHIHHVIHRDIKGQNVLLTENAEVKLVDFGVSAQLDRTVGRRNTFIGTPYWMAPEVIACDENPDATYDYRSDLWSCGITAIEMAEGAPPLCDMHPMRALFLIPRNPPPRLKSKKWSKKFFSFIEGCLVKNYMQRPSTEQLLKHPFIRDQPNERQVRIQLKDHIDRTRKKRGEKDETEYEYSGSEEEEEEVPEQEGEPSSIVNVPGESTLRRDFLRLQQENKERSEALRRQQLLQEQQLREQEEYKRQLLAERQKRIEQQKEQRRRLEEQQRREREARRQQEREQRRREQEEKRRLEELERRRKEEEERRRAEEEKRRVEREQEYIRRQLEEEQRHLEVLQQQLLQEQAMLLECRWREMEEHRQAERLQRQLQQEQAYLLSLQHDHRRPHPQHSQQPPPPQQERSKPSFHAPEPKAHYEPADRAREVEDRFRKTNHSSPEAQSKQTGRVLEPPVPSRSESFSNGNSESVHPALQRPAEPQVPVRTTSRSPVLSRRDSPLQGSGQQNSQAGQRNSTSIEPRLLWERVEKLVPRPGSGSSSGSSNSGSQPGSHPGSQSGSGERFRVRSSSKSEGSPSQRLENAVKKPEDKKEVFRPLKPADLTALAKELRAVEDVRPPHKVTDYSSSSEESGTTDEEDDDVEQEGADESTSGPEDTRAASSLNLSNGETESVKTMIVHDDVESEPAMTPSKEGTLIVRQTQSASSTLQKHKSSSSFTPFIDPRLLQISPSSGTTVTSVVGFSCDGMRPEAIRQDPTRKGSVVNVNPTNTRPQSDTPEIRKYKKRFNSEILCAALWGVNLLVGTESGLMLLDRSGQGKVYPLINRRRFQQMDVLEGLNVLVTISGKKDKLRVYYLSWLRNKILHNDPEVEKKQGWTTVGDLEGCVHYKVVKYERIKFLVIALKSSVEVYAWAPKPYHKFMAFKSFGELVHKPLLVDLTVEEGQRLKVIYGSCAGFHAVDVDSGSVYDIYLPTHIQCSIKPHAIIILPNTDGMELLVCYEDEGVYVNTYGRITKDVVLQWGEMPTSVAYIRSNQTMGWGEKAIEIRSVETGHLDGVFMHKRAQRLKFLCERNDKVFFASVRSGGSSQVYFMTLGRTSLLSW
- method summary: KINOMEscan competition binding
- condition description: compound 10.0 µM
In this section we review reported kinase still bound, per cent of control values for a set of compounds.

# compound, target desc, kinase still bound, per cent of control
measured = [
    ("C=CC(=O)Nc1ccc(C(=O)c2sc(Nc3ccc(N4CCN(C)CC4)cc3OC)nc2N)cc1", "MAP4K4 (human) (UniProt O95819)", "38%"),
    ("Cc1cn(-c2cc(C(=O)Nc3ccc(C)c(NC(=O)c4ccno4)c3)cc(C(F)(F)F)c2)cn1", "MAP4K4 (human) (UniProt O95819)", "100%"),
    ("CCN1CCN(Cc2ccc(NC(=O)c3ccc(C)c(/C=C/c4cnc5[nH]ccc5c4OC)c3)cc2C(F)(F)F)CC1", "MAP4K4 (human) (UniProt O95819)", "4.2%"),
    ("COc1cc(N2CCC(C(N)=O)CC2)ccc1Nc1nc(N)c(Cl)c(Nc2ccccc2S(=O)(=O)C(C)C)n1", "MAP4K4 (human) (UniProt O95819)", "100%"),
    ("CCOc1cc(N2CCC(O)CC2)ccc1Nc1ncc2c(n1)N(C)c1ccccc1C(=O)N2C", "MAP4K4 (human) (UniProt O95819)", "100%"),
    ("COc1ccc(N(C(=O)Oc2cc(C(=O)Nc3cccc(C(F)(F)F)c3)ccc2C)c2ccnc(Nc3ccc(N4CCN(C)CC4)cc3)n2)c(OC)c1", "MAP4K4 (human) (UniProt O95819)", "7%"),
    ("CNC(=O)Nc1ccc(-c2nc(N3CC4CCC(C3)O4)c3cnn(C4CCC5(CC4)OCCO5)c3n2)cc1", "MAP4K4 (human) (UniProt O95819)", "85%"),
    ("CC(=O)c1c(C)c2cnc(Nc3ccc(N4CCNCC4)cn3)nc2n(C2CCCC2)c1=O", "MAP4K4 (human) (UniProt O95819)", "23%"),
    ("COc1cc(C)c(Sc2cnc(NC(=O)c3ccc(CNC(C)C(C)C)cc3)s2)cc1C(=O)N1CCN(C(C)=O)CC1 (centres undefined)", "MAP4K4 (human) (UniProt O95819)", "100%"),
]
